Values were extracted from the supplement of paper PMC8728848.

- tested.system: Gal3S4S(b1-4)GlcNAc
- assay.explanation: glycan array binding signal (z-score within array); higher = stronger binding
- cond: glycan notation: IUPAC condensed, linker removed
Shown is part of a subset that was picked to be rich in the strongest signals.
Entries and their glycan array binding signal (z-score) values follow.
measured.quantity: glycan array binding signal (z-score)

>>> observed_measurement("Adiponectin (Rattus norvegicus), Q8K3R4 (protein) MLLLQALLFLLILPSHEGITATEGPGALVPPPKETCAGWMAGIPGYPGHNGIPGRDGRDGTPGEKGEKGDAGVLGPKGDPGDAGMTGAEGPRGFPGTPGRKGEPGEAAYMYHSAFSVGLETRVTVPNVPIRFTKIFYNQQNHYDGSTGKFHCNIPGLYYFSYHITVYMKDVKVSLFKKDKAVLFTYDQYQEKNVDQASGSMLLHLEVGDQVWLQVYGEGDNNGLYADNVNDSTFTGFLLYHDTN")
0.706
>>> observed_measurement("GNA (Galanthus nivalis), P30617 (protein) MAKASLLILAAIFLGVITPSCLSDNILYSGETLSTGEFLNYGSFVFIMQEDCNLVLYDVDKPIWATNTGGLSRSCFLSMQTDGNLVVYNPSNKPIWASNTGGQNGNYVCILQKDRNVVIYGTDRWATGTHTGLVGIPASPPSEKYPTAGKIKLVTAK")
-0.065
>>> observed_measurement("ECL (Erythrina cristagalli), Q6YD91 (protein) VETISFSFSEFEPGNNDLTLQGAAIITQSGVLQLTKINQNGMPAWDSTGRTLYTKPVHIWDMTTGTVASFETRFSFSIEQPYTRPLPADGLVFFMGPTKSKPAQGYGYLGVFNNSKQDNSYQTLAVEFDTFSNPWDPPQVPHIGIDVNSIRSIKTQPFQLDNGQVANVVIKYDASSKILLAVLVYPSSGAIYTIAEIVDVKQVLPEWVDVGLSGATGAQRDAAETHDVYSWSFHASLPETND")
-0.359
